Documented pIC50 across a set of compounds
molecular target: human SPNS2 (Homo sapiens); assay: S1P transporter assay: growth of S. cerevisiae strain with forced expression of a mammalian SphK and human SPNS2; conditions: in vitro inhibition of SPNS2; growth of S. cerevisiae strain expressing mammalian SphK and human SPNS2; compounds as their pharmaceutical salts
Sequence (Q8IVW8 whole entry): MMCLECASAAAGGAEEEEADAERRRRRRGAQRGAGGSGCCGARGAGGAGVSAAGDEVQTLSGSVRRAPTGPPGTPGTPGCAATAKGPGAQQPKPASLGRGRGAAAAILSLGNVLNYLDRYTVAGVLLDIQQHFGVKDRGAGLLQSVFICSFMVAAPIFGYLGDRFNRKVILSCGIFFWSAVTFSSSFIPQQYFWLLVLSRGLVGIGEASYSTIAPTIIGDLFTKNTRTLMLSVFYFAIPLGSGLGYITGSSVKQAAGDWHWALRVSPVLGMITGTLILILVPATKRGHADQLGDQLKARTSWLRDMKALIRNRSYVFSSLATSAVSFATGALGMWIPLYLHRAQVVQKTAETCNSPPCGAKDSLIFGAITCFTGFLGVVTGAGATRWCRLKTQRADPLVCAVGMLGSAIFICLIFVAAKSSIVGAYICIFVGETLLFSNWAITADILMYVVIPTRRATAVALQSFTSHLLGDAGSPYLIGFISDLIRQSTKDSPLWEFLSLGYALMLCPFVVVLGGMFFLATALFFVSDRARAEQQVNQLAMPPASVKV
pIC50: −log10 of the molar value. Where a name gives a salt, the structure may show the parent alone.
readout: pIC50

| compound | readout | endpoint_result |
| --- | --- | --- |
| C/C(=N\OCc1ccc(C(F)(F)F)cc1)c1ccc(-c2noc([C@@H]3CCNC3)n2)cc1 [Compound 38c, hydrochloride] | pIC50 | < 5.70 |
| N=C(N)N1CC[C@@H](c2nc(-c3ccc(Nc4ccccc4Cl)nc3)no2)C1 [Compound 15e, hydrochloride] | pIC50 | < 5.70 |
| CCCCc1ccc(Nc2ccc(-c3noc([C@@H]4CCNC4)n3)cn2)cc1 [Compound 13i, hydrochloride] | pIC50 | < 5.70 |
| CCCCCCCCCOc1ccc(-c2noc([C@@H]3CCCN(C(=N)N)C3)n2)cc1C(F)(F)F [Compound 23e, hydrochloride] | pIC50 | ≥ 5.70 |
| CC(C)(C)c1cccc(Nc2ccc(-c3noc([C@@H]4CCNC4)n3)cn2)c1 [Compound 13g, hydrochloride] | pIC50 | < 5.70 |
| N=C(N)N1CCC[C@@H](c2nc(-c3ccc(OCCCc4ccccc4)c(C(F)(F)F)c3)no2)C1 [Compound 23j, hydrochloride] | pIC50 | < 5.70 |
| CCCCCCCCCCc1ccc(-c2noc(C[C@H]3CCNC3)n2)cc1 [Compound 5l, 2,2,2-trifluoroacetate] | pIC50 | ≥ 5.70 |
